# system: PDE4D (Homo sapiens, UniProt Q08499)
# Sequence (Q08499 whole entry): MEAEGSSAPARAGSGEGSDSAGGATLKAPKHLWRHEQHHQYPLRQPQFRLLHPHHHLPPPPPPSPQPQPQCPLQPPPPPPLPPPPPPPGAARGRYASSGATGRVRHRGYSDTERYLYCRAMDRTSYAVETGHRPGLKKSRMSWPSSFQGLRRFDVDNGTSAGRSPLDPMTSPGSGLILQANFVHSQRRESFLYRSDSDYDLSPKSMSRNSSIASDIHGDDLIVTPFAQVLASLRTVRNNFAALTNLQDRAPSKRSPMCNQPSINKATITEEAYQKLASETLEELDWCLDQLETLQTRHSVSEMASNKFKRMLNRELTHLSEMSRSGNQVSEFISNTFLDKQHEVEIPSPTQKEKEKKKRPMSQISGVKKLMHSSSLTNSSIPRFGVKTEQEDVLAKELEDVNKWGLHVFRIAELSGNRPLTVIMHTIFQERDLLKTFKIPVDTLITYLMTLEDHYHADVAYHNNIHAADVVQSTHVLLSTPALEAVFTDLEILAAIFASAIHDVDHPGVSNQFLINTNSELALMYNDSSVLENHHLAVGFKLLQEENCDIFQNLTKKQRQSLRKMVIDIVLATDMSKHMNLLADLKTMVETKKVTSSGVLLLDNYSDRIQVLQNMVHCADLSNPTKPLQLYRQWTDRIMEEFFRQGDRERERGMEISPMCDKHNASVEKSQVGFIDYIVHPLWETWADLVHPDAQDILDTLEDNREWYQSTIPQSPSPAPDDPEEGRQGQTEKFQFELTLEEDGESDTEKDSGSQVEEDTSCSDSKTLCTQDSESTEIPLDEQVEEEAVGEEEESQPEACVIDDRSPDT
pIC50: −log10 of the molar value.
We use 9 as the dividing line for pIC50: on or above the line is Fulfilled, below is Not fulfilled.

Is pIC50 for COc1ccc([C@@H]2CN(C(=O)[C@@H](O)CO)C[C@@]2(C)[C@@H](C)O)cc1OC1CN(c2ccc(C(C)C)cn2)C1 [Compound 032] at or above 9? Not fulfilled

Is pIC50 for COc1ccc([C@@H]2CN(C(=O)[C@@H](O)CO)C[C@@]2(C)[C@@H](C)O)cc1OC1CN(c2ccc(CC(F)(F)F)cn2)C1 [Compound 033] at or above 9? Not fulfilled

Is pIC50 for COc1ccc([C@@H]2CN(C(=O)[C@@H](O)CO)C[C@@]2(C)[C@@H](C)O)cc1OC1CN(c2ccc(C)cn2)C1 [Positive control compound, reference compound] at or above 9? Fulfilled

Is pIC50 for COc1ccc([C@@H]2CN(C(=O)[C@@H](O)CO)C[C@@]2(C)[C@@H](C)O)cc1OC1CN(c2ncc(C)cc2C)C1 [Compound 021] at or above 9? Not fulfilled

Is pIC50 for CCc1nc(N2CC(Oc3cc([C@@H]4CN(C(=O)[C@@H](O)CO)C[C@@]4(C)[C@@H](C)O)ccc3OC)C2)ccc1C [Compound 027] at or above 9? Not fulfilled
